Molecular target: Tyrosine-protein kinase JAK3 (Homo sapiens, UniProt P52333)
Sequence (P52333 whole entry): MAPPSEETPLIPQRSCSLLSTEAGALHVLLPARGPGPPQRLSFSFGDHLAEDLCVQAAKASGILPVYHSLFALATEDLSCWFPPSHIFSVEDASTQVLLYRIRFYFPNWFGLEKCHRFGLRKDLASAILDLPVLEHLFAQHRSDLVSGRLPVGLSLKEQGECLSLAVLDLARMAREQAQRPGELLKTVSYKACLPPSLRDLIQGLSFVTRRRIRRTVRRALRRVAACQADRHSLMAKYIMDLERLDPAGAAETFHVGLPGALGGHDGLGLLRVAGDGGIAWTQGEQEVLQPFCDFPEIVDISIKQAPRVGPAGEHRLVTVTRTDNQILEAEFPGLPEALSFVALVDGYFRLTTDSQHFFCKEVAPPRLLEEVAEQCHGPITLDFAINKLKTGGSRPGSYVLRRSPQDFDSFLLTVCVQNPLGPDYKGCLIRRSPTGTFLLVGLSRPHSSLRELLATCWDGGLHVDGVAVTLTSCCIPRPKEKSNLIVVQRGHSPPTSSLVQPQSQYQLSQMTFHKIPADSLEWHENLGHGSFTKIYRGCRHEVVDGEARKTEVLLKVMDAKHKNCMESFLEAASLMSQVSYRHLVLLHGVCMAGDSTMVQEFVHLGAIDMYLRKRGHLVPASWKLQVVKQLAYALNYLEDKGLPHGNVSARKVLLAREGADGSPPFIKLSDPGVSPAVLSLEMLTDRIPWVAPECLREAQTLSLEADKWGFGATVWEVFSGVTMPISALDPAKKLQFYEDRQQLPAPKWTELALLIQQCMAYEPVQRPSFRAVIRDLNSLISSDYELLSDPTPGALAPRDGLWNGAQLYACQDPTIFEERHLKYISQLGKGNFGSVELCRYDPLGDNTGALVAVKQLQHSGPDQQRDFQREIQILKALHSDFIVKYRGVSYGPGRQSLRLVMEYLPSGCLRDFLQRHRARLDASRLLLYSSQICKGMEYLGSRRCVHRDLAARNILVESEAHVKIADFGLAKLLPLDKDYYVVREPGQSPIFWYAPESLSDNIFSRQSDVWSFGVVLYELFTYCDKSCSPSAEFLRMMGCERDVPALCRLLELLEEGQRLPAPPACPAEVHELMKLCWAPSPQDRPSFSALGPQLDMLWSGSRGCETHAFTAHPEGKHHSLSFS
Assay: Inhibition of JAK3 in […] assessed as inhibition of IL2-induced STAT5 phosphorylation by flow cytometry
MEASURED_METRIC: pIC50
Please keep in mind that pIC50 is minus log10 of the molar concentration; only the number is needed.

Exercise: Give its pIC50 value. Item: O=C1Nc2ccccc2-c2ccnc3[nH]cc(c23)C1c1ccc(O)cc1 (single isomer, unassigned; atropisomer 1)
Key: 5.82

----------
Assay: AUC (0 to infinity) in Sprague-Dawley rat at 10 mg/kg, po by LC/MS/MS method
Format: ADME, organism-based
Design: time infinity, dose 10 mg/kg, route oral
Conditions: plasma
MEASURED_METRIC: AUC(0-inf)
Report the figure along with its unit, number first.

Exercise: Give its AUC(0-inf) value. Item: O=C1Nc2ccccc2-c2ccnc3[nH]cc(c23)C1c1ccc(O)cc1 (stereo unspecified)
Key: 7700 ng·h/mL

----------
Test: AUC (0 to infinity) in Sprague-Dawley rat at 1.8 mg/kg, iv by LC/MS/MS method
Format: ADME, organism-based
Set-up: time infinity, dose 1.8 mg/kg, route intravenous
Conditions: plasma
MEASURED_METRIC: AUC(0-inf) (ng·h/mL)
Lab book: enter the figure in ng·h/mL, no units written.

Exercise: Give its AUC(0-inf) value. Item: O=C1Nc2ccccc2-c2ccnc3[nH]cc(c23)C1c1ccc(O)cc1 (stereo unspecified)
Key: 1260
